binding signal reference
Target: AGO2 A367P (Homo sapiens, UniProt Q9UKV8 1-859, A367P;S387D;S824A;S828D;S831D;S834A)
Sequence (Q9UKV8 whole entry A367P/S387D/S824A/S828D/S831D/S834A): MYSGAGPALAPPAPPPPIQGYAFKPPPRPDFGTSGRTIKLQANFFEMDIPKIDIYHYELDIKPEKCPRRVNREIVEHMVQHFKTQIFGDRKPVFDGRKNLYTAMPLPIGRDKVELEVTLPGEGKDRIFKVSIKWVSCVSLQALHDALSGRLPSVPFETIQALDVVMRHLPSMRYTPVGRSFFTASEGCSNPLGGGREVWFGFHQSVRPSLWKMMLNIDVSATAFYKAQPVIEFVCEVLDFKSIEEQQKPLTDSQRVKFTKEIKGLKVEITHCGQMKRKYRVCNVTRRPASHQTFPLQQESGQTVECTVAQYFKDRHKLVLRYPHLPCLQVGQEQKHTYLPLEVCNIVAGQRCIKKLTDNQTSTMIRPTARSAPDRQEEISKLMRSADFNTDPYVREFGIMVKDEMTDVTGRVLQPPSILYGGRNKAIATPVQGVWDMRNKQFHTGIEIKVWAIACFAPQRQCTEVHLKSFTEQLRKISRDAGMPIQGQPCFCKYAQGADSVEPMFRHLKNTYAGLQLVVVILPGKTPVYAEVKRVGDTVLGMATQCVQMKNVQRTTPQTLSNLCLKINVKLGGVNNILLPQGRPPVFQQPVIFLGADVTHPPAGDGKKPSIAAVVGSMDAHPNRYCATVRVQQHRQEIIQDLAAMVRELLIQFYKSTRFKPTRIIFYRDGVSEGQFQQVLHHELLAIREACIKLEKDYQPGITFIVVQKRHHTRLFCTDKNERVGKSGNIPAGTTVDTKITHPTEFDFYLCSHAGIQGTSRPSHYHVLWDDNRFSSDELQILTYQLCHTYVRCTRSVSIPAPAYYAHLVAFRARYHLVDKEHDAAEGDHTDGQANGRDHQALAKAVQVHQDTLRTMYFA
Test: RNA Bind-n-Seq (nitrocellulose filter binding and sequencing); miR-122 guide loaded in AGO2; 60 min incubation; 30 mM Tris pH 8.0, 100 mM potassium acetate, 2 mM magnesium acetate, 0.5 mM TCEP, 0.005% NP-40, 0.01 mg/ml yeast tRNA; 3 nM AGO2-miR-122, 100 nM RNA library; 60; high values mean tight binding
Conditions: protein: recombinant; tags: His6 (N-terminal, pFastBac HTA)

Binder: GCGCCCTG (ssRNA, constant regions annealed to DNA blockers; guide miR-122 5' phosphate) RNA 1: GAGUUCUACAGUCCGACGAUCCCAACGCGCCCUGCACCUGGAAUUCUCGGGUGCCAA RNA 2: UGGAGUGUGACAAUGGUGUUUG DNA 1: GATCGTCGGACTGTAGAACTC DNA 2: TTGGCACCCGAGAATTCCA
binding signal: 0.172 fold enrichment over input
--
Binder: GTATCCTG (ssRNA, constant regions annealed to DNA blockers; guide miR-122 5' phosphate) RNA 1: GAGUUCUACAGUCCGACGAUCCCAACGUAUCCUGCACCUGGAAUUCUCGGGUGCCAA RNA 2: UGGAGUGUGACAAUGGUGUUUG DNA 1: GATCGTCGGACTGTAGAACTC DNA 2: TTGGCACCCGAGAATTCCA
binding signal: 0.123 fold enrichment over input
